test system: OVCAR-8 ovarian; assay: NCI tumour cell line growth inhibition, 48 h; in the data active means GI50 below about 0.43 µM; inactive means the rest
Pick one: YES = active, NO = inactive

Would you please look over these solved cases?
compound="O=C(O)c1cc(O)c2c(c1)C(C1c3cc(C(=O)O)cc(O)c3C(=O)c3c(OC4OC(CO)C(O)C(O)C4O)cccc31)c1cccc(OC3OC(CO)C(O)C(O)C3O)c1C2=O (configuration not stated)" target_or_test_system="OVCAR-8 ovarian" answer_label=NO
compound=CN1CCc2c(Sc3ccc(C(=O)NO)cc3)c3ccccc3n2C1 target_or_test_system="OVCAR-8 ovarian" answer_label=NO
compound="COC(=O)[C@@H](NC(=O)[C@@H](OC)[C@@H]1Cc2cc3cc(OC4CC(OC5CC(O)C(O)C(C)O5)C(O)C(C)O4)c(C)c(O)c3c(O)c2C(=O)[C@H]1OC1CC(OC2CC(OC3CC(C)(O)C(O)C(C)O3)C(O)C(C)O2)C(O)C(C)O1)C(C)C (some centres not stated)" target_or_test_system="OVCAR-8 ovarian" answer_label=YES
compound=C=C1C(=O)O[C@H]2[C@H]1[C@@H](OC(=O)C=C(C)C)CC1=C[C@@H](C[C@@]3(C)O[C@@H]23)OC1=O target_or_test_system="OVCAR-8 ovarian" answer_label=NO
compound="COc1ccc(C2C(C#N)=C(N)OC3=C2COc2ccc(F)cc23)cc1OC (configuration not stated)" target_or_test_system="OVCAR-8 ovarian" answer_label=NO
compound=O=C(CCCN1CC=C(n2c(=O)[nH]c3ccccc32)CC1)c1ccc(F)cc1 target_or_test_system="OVCAR-8 ovarian" answer_label=NO

Next, consider the following compound.
Task: Check the results log: what was the call for Cc1ccc(Nc2nc(N)c(C(=O)c3ccc(C#N)cc3)s2)cc1 ?
Result: NO
